Assay: Urinary recovery of carbapenem antibiotics combined with DHP-I inhibitor
Assay type: in vivo, ICR mice
Details: mouse, urine, iv, 1 mg/kg, antibiotic 1 mg/kg i.v.; with Test compound No. 1, 0.5 mg/kg; ICR mice
value.type: dose excreted
Answer format reminder: number followed by unit.

compound: C[C@@H](O)[C@H]1C(=O)N2C(C(=O)O)=C(SCCNC=N)CC12 (some centres unmarked)
dose excreted: 66.1%

Read the next record carefully.
Exercise: What does the record list as dose excreted for C[C@@H](O)[C@H]1C(=O)N2C(C(=O)O)=C(S[C@@H]3CN[C@H](COC(N)=O)C3)CC12 (some centres unmarked) ?
Key: 51.4%

====

Biological target: DHP-I (renal dipeptidase) (Sus scrofa)
Sequence (P22412 17-409): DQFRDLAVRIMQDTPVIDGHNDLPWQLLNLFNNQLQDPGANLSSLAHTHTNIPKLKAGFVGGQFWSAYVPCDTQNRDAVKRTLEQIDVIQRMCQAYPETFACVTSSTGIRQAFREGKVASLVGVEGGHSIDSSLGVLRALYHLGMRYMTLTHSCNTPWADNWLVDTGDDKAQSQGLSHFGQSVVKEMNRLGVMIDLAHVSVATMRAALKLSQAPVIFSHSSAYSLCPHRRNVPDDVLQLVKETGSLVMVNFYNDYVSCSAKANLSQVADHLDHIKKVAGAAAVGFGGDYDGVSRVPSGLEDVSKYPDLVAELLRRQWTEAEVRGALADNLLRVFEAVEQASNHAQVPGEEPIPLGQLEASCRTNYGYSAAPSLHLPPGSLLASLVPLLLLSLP
value.type: pIC50
One number for each entry, as −log10 of the molar value.

compound: O=C(O)CCC(O)(C(=O)O)C(=O)NO (centres unmarked) [Test compound No. 2]
pIC50: 6.27

Read the next record carefully.
Exercise: What does the record list as pIC50 for CC(CC(=O)O)C(O)(C(=O)O)C(=O)NO (centres unmarked) [Test compound No. 1] ?
Key: 8.30

====

Target: UniProt P31429
Sequence (P31429 17-410): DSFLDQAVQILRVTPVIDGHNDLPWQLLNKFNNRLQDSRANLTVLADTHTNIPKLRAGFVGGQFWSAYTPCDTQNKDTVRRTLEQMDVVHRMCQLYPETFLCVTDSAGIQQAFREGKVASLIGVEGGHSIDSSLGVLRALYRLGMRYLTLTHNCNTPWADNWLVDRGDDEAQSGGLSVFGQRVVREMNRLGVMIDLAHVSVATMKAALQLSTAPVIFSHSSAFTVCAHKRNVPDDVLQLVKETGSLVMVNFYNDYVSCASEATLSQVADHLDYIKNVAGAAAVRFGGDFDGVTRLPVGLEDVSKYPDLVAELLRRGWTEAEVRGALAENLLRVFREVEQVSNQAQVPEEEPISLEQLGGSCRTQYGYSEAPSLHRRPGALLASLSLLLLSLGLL
Task for the reader: assign each of the following compounds its reported IC50.
One number for each entry, in nM.

compound: CC(CC(=O)O)C(O)(C(=O)O)C(=O)NO (centres unmarked)
target.or.system: UniProt P31429
units.label: nM
IC50: 49.7

Read the next record carefully.
Exercise: What does the record list as IC50 for O=C(O)CCC(O)(C(=O)O)C(=O)NO (centres unmarked) ?
Key: 2410

Data credit: patent US5061730A
